test system: OVCAR-8 ovarian; assay: NCI-60 one-dose screen, 48 h (100 = growth as untreated, 0 = no growth, -100 = all killed); settings: 10 µM unless noted
This is part of a sample that, as a whole, favours compounds with a hit. Of some 83,000 tested, about 20% had one in any assay.
Lab note: compare growth against 90%. Equal or greater, write Condition met. Smaller, write Condition not met.

molecule	testedSystem	assignedLabel
Cn1c2ccccc2c2c3[nH]c(=O)[nH]c(=O)c3c3c4ccccc4n(C)c3c21	OVCAR-8 ovarian	Condition not met
CCN(CC)CC#CCOC(=O)[C@]1(C)CCC[C@@]2(C)[C@H]1CC(C=O)=C1C=C(C(C)C)CC[C@@H]12	OVCAR-8 ovarian	Condition not met
O=c1c2cccc3c(Nc4c(F)cccc4F)ccc(c32)c2nc3ccccc3n12	OVCAR-8 ovarian	Condition met
COc1ccc(S(=O)(=O)NCCCNc2nccc(-c3c(-c4cccc(N)c4)nc4sccn34)n2)cc1	OVCAR-8 ovarian	Condition met
COc1ccccc1N1CCN(CCn2c(=O)c3c(c4ccccc4n3C)n(C)c2=O)CC1	OVCAR-8 ovarian	Condition not met
O=C(CCCN1CCOCC1)Nc1ccc(Cn2nnc3c2C(=O)c2nnn(Cc4ccc(NC(=O)CCCN5CCOCC5)cc4)c2C3=O)cc1	OVCAR-8 ovarian	Condition not met
COc1ccc(/C=C2\CN(C(=O)CCN3CCC(=NO)CC3)C/C(=C\c3ccc(OC)cc3)C2=O)cc1	OVCAR-8 ovarian	Condition not met
O=S(=O)(NCCCNc1cc(-c2cn(-c3ccccc3)nc2-c2ccccc2)ccn1)c1ccc(C(F)(F)F)cc1	OVCAR-8 ovarian	Condition not met
CCCCCn1cnc2c(=S)nc[nH]c21	OVCAR-8 ovarian	Condition met
CCCCNP1(NCCCC)=NP(NCCCC)(NCCCC)=NP(NCCCC)(NCCCC)=NP(NCCCC)(NCCCC)=N1	OVCAR-8 ovarian	Condition not met
c1ccc2c(Nc3cccc4ccccc34)cccc2c1	OVCAR-8 ovarian	Condition not met
CC(C)(C)n1cc(-c2ccnc(NCCNS(=O)(=O)c3ccccc3)c2)c(-c2cccc(O)c2)n1	OVCAR-8 ovarian	Condition not met
CC(=O)OCC1OC(OC2=C(CC=C(Cl)Cl)C(=O)c3ccccc3C2=O)C(OC(C)=O)C(OC(C)=O)C1OC(C)=O (centres undefined)	OVCAR-8 ovarian	Condition not met
COc1ccc(CN(c2ccc(C)cc2)C2OC(=O)c3ccccc32)cc1OC (centres undefined)	OVCAR-8 ovarian	Condition met
CN1CCN(Cc2ccc(NC(=O)c3cncc(C#Cc4cncc5nccnc45)c3)cc2C(F)(F)F)CC1	OVCAR-8 ovarian	Condition not met
C(=N\Nc1nnn(Cc2ccccc2)n1)/c1ccccc1	OVCAR-8 ovarian	Condition not met
COc1ccc(C(=O)/C=C/c2c[n+](=O)c3ccc(F)cc3n2[O-])cc1	OVCAR-8 ovarian	Condition not met

###

This section presents compounds with their documented growth values.
tested on: SW-620 colon; test: NCI-60 one-dose screen, 48 h (100 = growth as untreated, 0 = no growth, -100 = all killed); details: 10 µM unless noted
This is part of a sample that, as a whole, favours compounds with a hit. Of some 83,000 tested, about 20% had one in any assay. The source made the active and inactive calls. Rule for the calls: active = growth percent below 10; inactive = the rest.
endpointName: growth

compound	endpointName	reported
COc1nc2c(cc1S(=O)(=O)c1ccccc1)CCc1c-2cnn1Cc1ccccc1	growth	74.1% (inactive)
NC(=S)N/N=C/c1ccc(OCc2ccccc2)cc1	growth	66.2% (inactive)
O=C1/C(=C/c2ccc(F)cc2)CN(C(=O)CCN2CCC(=NO)CC2)C/C1=C\c1ccc(F)cc1	growth	-56.5% (active)
COc1ccccc1/C=C(/C(=O)c1ccccc1)c1ccccc1	growth	101% (inactive)
COc1cccc(/C=C\C(=O)c2ccccc2)c1	growth	15% (inactive)
O=C(Nc1ccc(F)cc1)Nc1ccc(CCO)cc1	growth	108% (inactive)
O=C1Nc2ccccc2/C1=C/C(=N/c1nnc(-c2ccc(Cl)cc2)s1)c1ccccc1	growth	-52.6% (active)
CC1=NNC(=O)C1C (centres undefined)	growth	98% (inactive)
COc1ccc(S(=O)(=O)NCCNc2nccc(-c3c(-c4cccc(N)c4)nc4sccn34)n2)cc1	growth	113% (inactive)
O=C(Nc1ccc(Oc2ccc(F)cc2)c(Cl)c1)c1cccnc1	growth	92.7% (inactive)
Cc1ccc(SCN2CCN(c3cccc(Cl)c3)CC2)cc1	growth	107% (inactive)
O=C1c2ccccc2-c2nccc3cc(Cl)nc1c23	growth	-54% (active)
CC/C(=C(\c1ccccc1)c1ccc(OCCNC)cc1)c1ccccc1	growth	-57.6% (active)
Cc1cc(Nc2nc(N3CCOCC3)nc3ccccc23)n[nH]1	growth	79.3% (inactive)
Cc1ccc(Nc2c(C(N)=O)cnc3ccc(-c4csc(N)n4)cc23)cc1	growth	97% (inactive)
O=[N+]([O-])c1cccc(C2CC(c3ccccc3)=Nc3ccccc3S2)c1 (centres undefined)	growth	25.6% (inactive)
O=C1NC(=O)C(CC(=O)n2c(-c3ccccc3)nc3ccccc32)C(=O)N1	growth	104% (inactive)
Oc1cc(O)c2c(=S)cc(-c3ccc(Cl)cc3)oc2c1	growth	41.5% (inactive)
O=C(CCN1CCOCC1)Nc1ccc(Cn2nnc3c2C(=O)c2nnn(Cc4ccc(NC(=O)CCN5CCOCC5)cc4)c2C3=O)cc1	growth	30.7% (inactive)
COc1ccc(N(Cc2cc(OC)c(OC)c(OC)c2)C2OC(=O)c3ccccc32)cc1 (centres undefined)	growth	20.3% (inactive)
CC(=O)CC(C)(C)c1ccc(Cl)cc1	growth	100% (inactive)
CN1Cc2c(cc(CN3CCCCC3)n2C)C(c2ccc(Br)cc2)C1 (centres undefined)	growth	90.8% (inactive)
C/C(=C(/c1ccc(O)cc1)c1ccc(OCCN2CCCC2)cc1)c1ccccc1	growth	67.8% (inactive)
O=C(CN1CCN(c2cc3c(cc2F)c(=O)c(C(=O)O)cn3C2CC2)CC1)Nc1cc(=O)[nH]c(=O)[nH]1	growth	95.4% (inactive)
O=C(CN1CCN(c2cc3c(cc2F)c(=O)c(C(=O)O)cn3C2CC2)CC1)Nc1nc(-c2ccccc2)cs1	growth	91.7% (inactive)
COc1cc2c(c(OC)c1OC)-c1ccc(N=NC(N)=S)c(=O)cc1[C@@H](NC(C)=O)CC2	growth	17.3% (inactive)
CC(C)(C)n1cc(-c2ccnc(NCCNS(=O)(=O)c3ccccc3)c2)c(-c2cccc(O)c2)n1	growth	16.2% (inactive)
CC1(C)CC(C(=O)OCCCCCCCCCCC[P+](c2ccccc2)(c2ccccc2)c2ccccc2)C(C)(C)N1O (centres undefined)	growth	-81% (active)
Cc1cc(Nc2nc(N3CCNCC3)nc3ccccc23)n[nH]1	growth	103% (inactive)
CC(C)C1=C[C@@]23CC[C@@H]4[C@](C)(CCC[C@@]4(C)C(=O)OCC#CCN4CCCC4)[C@H]2C[C@@H]1[C@H]1C(=O)OC(=O)[C@H]13	growth	109% (inactive)
COc1ccc(-c2cc(-c3ccc(N(C)C)cc3)nc(NC(=O)c3ccncc3)n2)cc1	growth	98.7% (inactive)
Cc1ccc(C2CC3c4ccccc4C2C2CCCCN32)cc1 (centres undefined)	growth	106% (inactive)
CCc1ccccc1NC(=O)c1sc2nc3c(cc2c1N)C(=O)CCC3	growth	25.7% (inactive)
NCc1cn2cc(Cl)sc2n1	growth	106% (inactive)

These entries and their values trace back to PubChem BioAssay (NCI).
